Numbers sourced from patent US20100093642A1.

Task for the reader: assign each of the following sequences its reported Minimal inhibitory concentration (MIC), Botrytis cinerea.
Test system: Botrytis cinerea 101
Reported conditions: 48 h
No end group written: not given here.
Give just the numeric value; µM need not be written.

Data request: Which Minimal inhibitory concentration (MIC), Botrytis cinerea is listed for GWFKKTFHKVSHAVKSGIHAGQRGCSALGF [P17 HC] ?
Data returned: 50

Data request: Fill in the blank: the reported Minimal inhibitory concentration (MIC), Botrytis cinerea of GWFKKTFHKV [P17 HC (1-10)] is ____.
Data returned: 100

Data request: Could you share which Minimal inhibitory concentration (MIC), Botrytis cinerea value was measured for GWFKKTFHKVSHAVKSGIHA [P17 HC (1-20)] ?
Data returned: 100
